Entry source: patent US12559474B2

Quick list: IC50 per entry.
- target: SARS-CoV-2 3CL protease (Severe acute respiratory syndrome coronavirus 2)
- assay: biochemical
- condition info: IC50
reported property: IC50

>>> reported("CNC(=O)CCn1c(=O)nc(Nc2cc3cn(C)nc3cc2Cl)n(Cc2cc(F)c(F)cc2F)c1=O")
"1000 nM"
>>> reported("Cn1cc(Nc2nc(=O)n(Cc3ccc[nH]c3=O)c(=O)n2Cc2cc(F)c(F)c(F)c2)c(Cl)cc1=O")
"< 100 nM"
>>> reported("CNC(=O)COc1ccc(Nc2nc(=O)n(Cc3ccc[nH]c3=O)c(=O)n2Cc2cc(F)c(F)c(F)c2)c(Cl)c1")
"< 100 nM"
>>> reported("Cn1cnc(Cn2c(=O)nc(Nc3cc4cn(CC(=O)NC5CC5)nc4cc3Cl)n(Cc3cc(Cl)c(F)cc3F)c2=O)n1")
"< 100 nM"

* * *

Quick list: pIC50 per entry.
- target: SARS-CoV-2 3CL protease (Severe acute respiratory syndrome coronavirus 2, UniProt P0DTD1)
- assay: biochemical
- condition info: IC50
pIC50: −log10 of the molar value.
reported property: pIC50

>>> reported("Cn1cnc(Cn2c(=O)nc(NC34CC(Nc5ncc(F)cn5)(C3)C4)n(Cc3cc(F)c(F)c(F)c3)c2=O)n1")
"> 7.00"
>>> reported("CNc1nc2cc(Cl)c(Nc3nc(=O)n(Cc4ncn(C)n4)c(=O)n3Cc3ccc(F)c(C#N)c3)cc2s1")
"> 7.00"
>>> reported("O=c1cc(Cl)c(Nc2nc(=O)n(Cc3ccc[nH]c3=O)c(=O)n2Cc2cc(F)c(F)c(F)c2)c[nH]1")
"> 7.00"
>>> reported("Cn1cnc(Cn2c(=O)nc(Nc3cc4cn(C)nc4cc3Cl)n(Cc3cc(F)cc4c3OCOC4)c2=O)n1")
"> 7.00"
>>> reported("Cc1cncc(-n2c(=O)nc(Nc3cc4c(=O)n(C)cnc4cc3Cl)n(Cc3ccc(F)c(C#N)c3)c2=O)c1")
"> 7.00"
>>> reported("CN(C)C(=O)c1ccc(Cn2c(=O)nc(Nc3ccc4c(c3)CCCO4)n(Cc3cc(F)c(F)c(F)c3)c2=O)c(=O)[nH]1")
"> 7.00"
>>> reported("Cn1cnc2ccc(Nc3nc(=O)n(Cc4ccc[nH]c4=O)c(=O)n3Cc3cc(F)c(F)c(F)c3)cc21")
"> 7.00"
>>> reported("Cc1cncc(-n2c(=O)nc(Nc3ccc(N=S(C)(C)=O)cc3OC(F)(F)F)n(Cc3cc(Cl)ccc3C)c2=O)c1")
"> 7.00"
>>> reported("Cn1cnc(Cn2c(=O)nc(Nc3cc4cn(CC(=O)O)nc4cc3Cl)n(Cc3cc(Cl)c(F)cc3F)c2=O)n1")
"> 7.00"
>>> reported("Cc1cncc(-n2c(=O)nc(Nc3cc4cn(C)nc4cc3Cl)n(C[C@@H]3CCCN3C(=O)CNC(=O)C(F)(F)F)c2=O)c1")
5.47
>>> reported("O=c1[nH]cccc1Cn1c(=O)nc(NC(c2ccccc2)c2ccccc2O)n(Cc2cc(F)c(F)c(F)c2)c1=O (centres unmarked)")
6.60
>>> reported("Cc1cncc(-n2c(=O)nc(Nc3ccc(N=S4(=O)CCCC4)cc3F)n(Cc3cc(Cl)ccc3C)c2=O)c1")
"> 7.00"
>>> reported("O=c1[nH]cccc1Cn1c(=O)nc(Nc2ccc(O)cc2)n(Cc2cc(F)c(F)c(F)c2)c1=O")
"> 7.00"
>>> reported("C[C@H](Nc1nc(=O)n(Cc2ccc[nH]c2=O)c(=O)n1Cc1cc(F)c(F)c(F)c1)c1ccccc1")
6.26
